Origin of values: patent US20140288052A1

biological target: SIRT1 (Homo sapiens, UniProt Q96EB6); assay: Trp mass spectrometry assay of SIRT1 deacetylase activation; assay type: biochemical; settings: concentration that results in 150% activation of SIRT1; Trp peptide substrate
Sequence (Q96EB6 whole entry): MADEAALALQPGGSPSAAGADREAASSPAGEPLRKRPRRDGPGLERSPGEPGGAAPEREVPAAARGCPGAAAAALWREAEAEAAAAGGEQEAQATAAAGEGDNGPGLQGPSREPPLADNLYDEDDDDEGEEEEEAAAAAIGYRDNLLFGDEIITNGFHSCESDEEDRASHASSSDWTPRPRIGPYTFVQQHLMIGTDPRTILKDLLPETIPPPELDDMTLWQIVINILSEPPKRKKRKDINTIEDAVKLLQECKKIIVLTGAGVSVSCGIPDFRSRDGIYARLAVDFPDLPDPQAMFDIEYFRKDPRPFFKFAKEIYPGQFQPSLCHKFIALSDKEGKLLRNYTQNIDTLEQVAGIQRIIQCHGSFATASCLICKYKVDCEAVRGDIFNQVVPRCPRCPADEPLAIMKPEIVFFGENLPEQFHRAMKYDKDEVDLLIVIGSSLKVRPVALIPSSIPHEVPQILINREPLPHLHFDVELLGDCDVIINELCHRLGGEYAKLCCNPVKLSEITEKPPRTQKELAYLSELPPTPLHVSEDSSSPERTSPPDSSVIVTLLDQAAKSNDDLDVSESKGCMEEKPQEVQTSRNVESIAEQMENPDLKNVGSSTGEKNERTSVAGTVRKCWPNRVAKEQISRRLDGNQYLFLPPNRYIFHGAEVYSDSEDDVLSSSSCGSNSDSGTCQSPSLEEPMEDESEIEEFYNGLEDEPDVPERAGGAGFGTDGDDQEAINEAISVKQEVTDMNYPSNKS
parameter: TRP EC1.5 (μM)

Example entries begin here.
compound	TRP EC1.5 (μM)
O=C(Nc1nccs1)c1cc(N2CCOCC2)nn2cc(-c3cccc(Cl)c3)nc12	C (EC1.5>25 μM)
O=C(Nc1ccnc2cc(-c3cccc(C(F)(F)F)c3)nn12)c1cccc(OCC(O)CO)n1 (centres unmarked)	B (EC1.5 1−25 μM)
O=C(Nc1cccnc1)c1cc(N2CCOCC2)nn2cc(-c3ccccc3C(F)(F)F)nc12	B (EC1.5 1−25 μM)
O=C(Nc1ccnc2cc(-c3cccc(C(F)(F)F)c3)nn12)c1cnccn1	C (EC1.5>25 μM)
O=C(Nc1ccccn1)c1cc(N2CCOCC2)nn2cc(-c3ccccc3F)nc12	C (EC1.5>25 μM)
O=C(Nc1ccccn1)c1ccnc2cc(-c3cccc(C(F)(F)F)c3)nn12	C (EC1.5>25 μM)

**Query** Give its TRP EC1.5 (μM) value. Item: `O=C(Nc1cccc(N2CCOCC2)n1)c1ccnc2cc(-c3cccc(C(F)(F)F)c3)nn12`
**Result** C (EC1.5>25 μM)

**Query** `O=C(Nc1ccncc1)c1ccnc2cc(-c3ccccc3C(F)(F)F)nn12` ?
**Result** B (EC1.5 1−25 μM)

###

target: SIRT1 (Homo sapiens, UniProt Q96EB6); test: TAMRA based mass spectrometry assay of SIRT1 deacetylase activation; type: biochemical; conditions: concentration that results in 150% activation of SIRT1; TAMRA peptide substrate
parameter: TAMRA EC1.5 (μM)

Reference set (4 entries):
record-smiles	val
O=C(Nc1nccs1)c1ccnc2cc(-c3ccccc3C(F)(F)F)nn12	B (EC1.5 1−25 μM)
O=C(Nc1cccnc1)c1ccnc2cc(-c3ccccc3C(F)(F)F)nn12	B (EC1.5 1−25 μM)
Cc1cccc(C(=O)Nc2ccnc3cc(-c4ccccc4C(F)(F)F)nn23)n1	A (EC1.5<1 μM)
O=C(Nc1nccs1)c1cc(N2CCOCC2)nn2cc(-c3cccc(Cl)c3)nc12	C (EC1.5>25 μM)

**Query** # query: TAMRA EC1.5 (μM) of entry `O=C(Nc1ccncn1)c1ccnc2cc(-c3ccccc3C(F)(F)F)nn12`
**Result** A (EC1.5<1 μM)

**Query** `Cc1cnc(NC(=O)c2ccnn3cc(-c4ccccc4C(F)(F)F)nc23)s1` , same question.
**Result** A (EC1.5<1 μM)

**Query** Please do the same for `O=C(Nc1ccnc(N2CCOCC2)c1)c1ccnn2cc(-c3ccccc3F)nc12` as well.
**Result** C (EC1.5>25 μM)

**Query** Now give it for `O=C(Nc1cccc(CN2CCOCC2)n1)c1ccnc2cc(-c3ccccc3C(F)(F)F)nn12` too.
**Result** A (EC1.5<1 μM)

###

target: SIRT1 (Homo sapiens, UniProt Q96EB6); assay: TAMRA based mass spectrometry assay of SIRT1 deacetylase activation; format: biochemical; details: concentration that results in 150% activation of SIRT1; TAMRA peptide substrate
parameter: TAMRA EC1.5 (μM)

compound	TAMRA EC1.5 (μM)
Cn1cnc(C(=O)Nc2ccnc3cc(-c4ccccc4C(F)(F)F)nn23)c1 [Compound 94]	A (EC1.5<1 μM)
O=C(Nc1cnccn1)c1ccnc2cc(-c3cccc(C(F)(F)F)c3)nn12 [Compound 102]	C (EC1.5>25 μM)
Cc1cnc(NC(=O)c2cc(N3CCOCC3)nn3cc(-c4cccc(C(F)(F)F)c4)nc23)s1 [Compound 48]	C (EC1.5>25 μM)
Cc1ccnc(C(=O)Nc2ccnc3cc(-c4ccccc4C(F)(F)F)nn23)c1 [Compound 105]	A (EC1.5<1 μM)

**Query** # lookup: TAMRA EC1.5 (μM) of Cc1cnc(C(=O)Nc2ccnc3cc(-c4ccccc4C(F)(F)F)nn23)cn1 [Compound 108]
**Result** A (EC1.5<1 μM)

**Query** Now give it for Cc1cccnc1C(=O)Nc1ccnc2cc(-c3ccccc3C(F)(F)F)nn12 [Compound 112] too.
**Result** A (EC1.5<1 μM)

**Query** Consider next the compound O=C(Nc1ccncc1)c1cc(N2CCOCC2)nn2cc(-c3ccccc3F)nc12 [Compound 41] in the same way.
**Result** C (EC1.5>25 μM)

###

Molecular target: SIRT1 (Homo sapiens)
Experiment: TAMRA based mass spectrometry assay of SIRT1 deacetylase activation
Format: biochemical
Conditions: percent maximum fold activation relative to control (100%); TAMRA peptide substrate
Protocol: Mass spectrometry based assays were used to identify modulators of SIRT1 activity. […] The TAMRA based mass spectrometry assay was conducted as follows: 0.5 μM peptide substrate and 120 μM βNAD^+ was incubated with 10 nM SIRT1 for 25 minutes at 25° C. in a reaction buffer (50 mM Tris-acetate pH 8, 137 mM NaCl, 2.7 mM KCl, 1 mM MgCl2, 5 mM DTT, 0.05% BSA). […] Test compound was added at varying concentrations to this reaction mixture and the resulting reactions were monitored. […]
parameter: TAMRA % Fold Act

compound	TAMRA % Fold Act
O=C(Nc1cccnc1)c1cc(N2CCOCC2)nn2cc(-c3cccc(F)c3)nc12 [Compound 28]	B (Fold Activation<350%)
O=C(Nc1ccncc1)c1cc(N2CCOCC2)nn2cc(-c3ccccc3F)nc12 [Compound 41]	B (Fold Activation<350%)
O=C(Nc1nccs1)c1ccnn2cc(-c3ccccc3F)nc12 [Compound 1]	B (Fold Activation<350%)
O=C(Nc1ccccn1)c1cc(N2CCOCC2)nn2cc(-c3cccc(F)c3)nc12 [Compound 27]	B (Fold Activation<350%)
O=C(Nc1ccnc2cc(-c3ccccc3C(F)(F)F)nn12)c1cccc(OC[C@@H](O)CO)n1 [Compound 115]	A (Fold activation≧350%)

**Query** Please tell me: TAMRA % Fold Act of O=C(Nc1ccnc2cc(-c3cccc(C(F)(F)F)c3)nn12)c1nccs1 [Compound 95] , system SIRT1 (Homo sapiens)?
**Result** B (Fold Activation<350%)

**Query** Now consider Cc1cc(C)nc(C(=O)Nc2ccnc3cc(-c4ccccc4C(F)(F)F)nn23)c1 [Compound 106] .
**Result** A (Fold activation≧350%)

**Query** What about O=C(Nc1nccs1)c1cc(N2CCOCC2)nn2cc(-c3cccc(C(F)(F)F)c3)nc12 [Compound 47] ?
**Result** B (Fold Activation<350%)

###

molecular target: SIRT1 (Homo sapiens, UniProt Q96EB6); assay: TAMRA based mass spectrometry assay of SIRT1 deacetylase activation; assay type: biochemical; conditions: concentration that results in 150% activation of SIRT1; TAMRA peptide substrate
parameter: TAMRA EC1.5 (μM)

compound	TAMRA EC1.5 (μM)
O=C(Nc1cccnc1)c1cc(N2CCOCC2)nn2cc(-c3ccccc3Cl)nc12 [Compound 52]	C (EC1.5>25 μM)
O=C(Nc1nccs1)c1ccnn2cc(-c3cccc(C(F)(F)F)c3)nc12 [Compound 17]	C (EC1.5>25 μM)
O=C(Nc1cccnc1)c1ccnc2cc(-c3cccc(C(F)(F)F)c3)nn12 [Compound 85]	C (EC1.5>25 μM)
O=C(Nc1ccnc2cc(-c3cccc(C(F)(F)F)c3)nn12)c1cccc(OCC(O)CO)n1 (centres unmarked) [Compound 74]	B (EC1.5 1−25 μM)
O=C(Nc1ccccn1)c1cc(N2CCOCC2)nn2cc(-c3cccc(Cl)c3)nc12 [Compound 32]	C (EC1.5>25 μM)

**Query** I am curious: what TAMRA EC1.5 (μM) value has been reported for Cn1cnc(C(=O)Nc2ccnc3cc(-c4cccc(C(F)(F)F)c4)nn23)c1 [Compound 96] ?
**Result** B (EC1.5 1−25 μM)

**Query** Follow-up item: O=C(Nc1nccs1)c1ccnn2cc(-c3ccccc3Cl)nc12 [Compound 3]
**Result** C (EC1.5>25 μM)

###

molecular target: SIRT1 (Homo sapiens); test: TAMRA based mass spectrometry assay of SIRT1 deacetylase activation; format: biochemical; settings: percent maximum fold activation relative to control (100%); TAMRA peptide substrate
parameter: TAMRA % Fold Act

Use these answered entries as a reference point.
record-smiles	measured-target	val
O=C(Nc1nccs1)c1ccnc2cc(-c3cccc(C(F)(F)F)c3)nn12	SIRT1 (Homo sapiens)	B (Fold Activation<350%)
Cc1cnc(NC(=O)c2cc(N3CCOCC3)nn3cc(-c4ccccc4C(F)(F)F)nc23)s1	SIRT1 (Homo sapiens)	B (Fold Activation<350%)
Cc1nc(C(=O)Nc2ccnc3cc(-c4ccccc4C(F)(F)F)nn23)c(C)s1	SIRT1 (Homo sapiens)	A (Fold activation≧350%)
COc1cccc(C(=O)Nc2ccnc3cc(-c4ccccc4C(F)(F)F)nn23)n1	SIRT1 (Homo sapiens)	A (Fold activation≧350%)
O=C(Nc1ncccn1)c1ccnc2cc(-c3ccccc3C(F)(F)F)nn12	SIRT1 (Homo sapiens)	A (Fold activation≧350%)

**Query** Entry `O=C(Nc1ccnc2cc(-c3cccc(C(F)(F)F)c3)nn12)c1cscn1` : reported TAMRA % Fold Act = ?
**Result** B (Fold Activation<350%)

**Query** Record: `O=C(Nc1ccnc2cc(-c3ccccc3C(F)(F)F)nn12)c1ccncn1`
**Result** B (Fold Activation<350%)
